Test system: 409-B2 iCRISPR-Cas9D10A iPSCs
test.name: Precise genome editing (PGE) efficiency with iCRISPR Cas9D10A double nicking and ssODN donors, Illumina sequencing/CRISPResso
Format: cell-based, human
settings: CALD1; Cas9D10A; 20 μM NU7026, 0.01 μM TSA, 0.5 μM MLN4924, 5 μM NSC 15520; CRISPY mix = all four
Hi there, I'd appreciate the recorded PGE increase (mean change vs control) for every entry that follows.

Look up PGE increase (mean change vs control) for this compound: CC(C)C1=CC23CCC4C(C)(C(=O)O)CCCC4(C)C2CC1C(C(=O)O)C3C(=O)O (stereo not shown) 1.4 fold

And then `O=c1cc(N2CCOCC2)oc2c1ccc1ccccc12` , what is it? 1.5 fold

And then `CC(/C=C/C(=O)NO)=C\[C@@H](C)C(=O)c1ccc(N(C)C)cc1` , what is it? 1.5 fold

And then `NS(=O)(=O)OC[C@@H]1C[C@@H](n2ccc3c(N[C@H]4CCc5ccccc54)ncnc32)C[C@@H]1O` , what is it? 1.2 fold
